Each recorded value in this set is attributed to the supplement of paper PMC8728848.

Target: Fuc(a1-2)[GalNAc(a1-3)]Gal(b1-4)GlcNAc
Assay: glycan array binding signal (z-score within array); higher = stronger binding
Details: glycan notation: IUPAC condensed, linker removed
The full list was thinned out, with the strongest signals kept by preference.
measurement.label: glycan array binding signal (z-score)
The answer should be a number; do not append a unit.

## Input Please look up its glycan array binding signal (z-score): Apa (Mycobacterium tuberculosis), Rv1860 (protein) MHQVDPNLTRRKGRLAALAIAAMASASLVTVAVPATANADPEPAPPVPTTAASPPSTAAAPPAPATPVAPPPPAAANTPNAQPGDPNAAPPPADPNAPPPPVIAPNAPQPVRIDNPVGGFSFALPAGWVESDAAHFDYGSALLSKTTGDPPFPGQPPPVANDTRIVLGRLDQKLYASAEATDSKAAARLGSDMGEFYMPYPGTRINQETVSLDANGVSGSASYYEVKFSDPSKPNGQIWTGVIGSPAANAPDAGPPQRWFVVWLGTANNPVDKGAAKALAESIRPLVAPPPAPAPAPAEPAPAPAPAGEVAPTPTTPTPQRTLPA
## Output -0.327
